# Protocol: Quantitative High-Throughput drug screen in 47 multiple myeloma cell lines against the NCATS MIPE library collection: INA6_PLB cell viability assay (AID 1918965; also: potency is read from the fitted curve at half-maximal effect; nearly all actives have a fitted effect of over 55% in size)
# Measurement Parameters: INA6 myeloma viability, CellTiter-Glo ATP luminescence, 48 h; series mostly up to 45.8 µM
Results filed as inconclusive are left out. Active and inactive are the calls of the source. Calls follow the shape of the dose curve; as a rule, active = well fitted cell-killing curve with a large enough effect; inconclusive = small, poorly fitted or top-dose-only effect, or effect the other way; inactive = no such curve, though single readings can be large or run the other way.
Readout Type: Potency

Solved cases below.
Smiles Repr	Potency
Cc1ccc(NC(=O)C2(c3ccc4c(c3)OC(F)(F)O4)CC2)nc1-c1cccc(C(=O)O)c1	29.6 nM (active)
COCCOc1ccc2c(c1)ncn2-c1ccc2cccc(N3CCC(N)CC3)c2n1	46.9 nM (active)
CNC(=O)c1c(F)cccc1Nc1nc(Nc2cc3c(cc2OC)CCN3C(=O)CN(C)C)nc2[nH]ccc12	5900 nM (active)

# ---- query compound ----
Ask | Item O=C(NCCCNc1nc(Nc2cccc(NC(=O)N3CCCC3)c2)ncc1I)c1cccs1 : provide Potency
Reply | 662 nM (active)

###

# Protocol: qHTS drug screen for cell cycle checkpoint inhibitors in PARPi-resistant BRCA-mutant ovarian cancer cell lines. (AID 1963452)
# Measurement Parameters: PEO1/OlaR viability, CellTiter-Glo luminescence, 96 h; measured here: PEO4 Z-AUC; stronger effect = lower value
# From the text: Women's Malignancies Branch, Center for Cancer Research (CCR), National Cancer Institute (NCI), National Institutes of Health (NIH), Bethesda, MD Poly (ADP-ribose) polymerase inhibitors (PARPis) have changed the treatment paradigm in breast cancer gene (BRCA) - mutant high-grade serous ovarian carcinoma (HGSC). […] 6; Detection; Luminescence, PHERAstar (BMG Labtech) plate reader. […] 6. Luminescence readings were taken using PHERAstar (BMG Labtech). […]
Rule: Z-AUC below -0.3 gives class 1. Equal to or above -0.3 gives class 0.

Example entries begin here.
Compound	Class Name
Cc1ccc(C(N)=O)cc1Nc1nccc(-c2cn(C(C)C)c3cnccc23)n1	class 1
C=C1C(=CC=C2CCC[C@]3(C)[C@@H]([C@H](C)C=C[C@H](C)C(C)C)CC[C@@H]23)C[C@@H](O)C[C@@H]1O	class 0
COc1cc2nccc(Oc3ccc(NC(=O)C4(C(=O)Nc5ccc(F)cc5)CC4)cc3)c2cc1OC	class 0
CC(=O)Nc1nc(C)c(-c2ccc(Cl)c(S(=O)(=O)NCCO)c2)s1	class 1
Cn1cncc1[C@@](N)(c1ccc(Cl)cc1)c1ccc2c(c1)c(-c1cccc(Cl)c1)cc(=O)n2C	class 0
COc1cc(-c2nn(C3CCC(N4CCN(C(C)=O)CC4)CC3)c3ncnc(N)c23)ccc1NC(=O)c1cc2ccccc2n1C (stereo not given)	class 0

Ask | Report whether reported Z-AUC is lower than -0.3 (strictly) for CC1(O)CC(c2nc(-c3ccc4ccc(-c5ccccc5)nc4c3)c3c(N)nccn23)C1 (stereo not given)
Reply | class 1

###

In this section we review reported Potency values for a set of compounds.
# Protocol: qHTS of pediatric cancer cell lines to identify multiple opportunities for drug repurposing: Primary screen for TC32 cells (AID 1347089); also: potency is read from the fitted curve at half-maximal effect; nearly all actives have a fitted effect of over 60% in size
# Measurement Parameters: TC32 Ewing sarcoma viability, CellTiter-Glo luminescence, 48 h; series mostly up to 45.8 µM
Records with an inconclusive call do not appear. Activity calls are given as the source filed them. The call rests on the fitted dose curve; in most records, active means well fitted cell-killing curve with a large enough effect; inconclusive means small, poorly fitted or top-dose-only effect; inactive means flat fitted curve, though single readings scatter.

Example cases with answers are listed next.
Smiles Repr	Readout Type	Test Result
CCn1nnc2c(N3CCOCC3)nc(-c3ccc(NC(=O)Nc4ccc(C(=O)N5CCN(C)CC5)cc4)cc3)nc21	Potency	0.0294 µM (active)
CC(C)c1cnn2c(NCc3ccccc3)cc(N[C@@H](CO)[C@H](O)CO)nc12	Potency	1.47 µM (active)
NC(=O)Nc1cc(-c2cccc(F)c2)sc1C(=O)N[C@H]1CCCNC1	Potency	2.34 µM (active)
Nc1ncnc2c1c(-c1cnc3[nH]ccc3c1)nn2C1CCCC1	Potency	5.87 µM (active)
COc1ccc(C=Cc2cc(OC)c(OC)c(OC)c2)cc1O	Potency	0.0004 µM (active)

Turning to the following compound.
Ask | Give me measured Potency, please, for this compound: CN1CCN(c2ccc3nc(-c4c(N)c5c(F)cccc5[nH]c4=O)[nH]c3c2)CC1
Reply | 14.7 µM (active)
